# assayed_target: T1, human high affinity trimeric IL-2 receptor (CD25/CD122/CD132) (human, UniProt P01589 22-272; P14784 27-551; P31785 23-369)
# T1 sequence 1: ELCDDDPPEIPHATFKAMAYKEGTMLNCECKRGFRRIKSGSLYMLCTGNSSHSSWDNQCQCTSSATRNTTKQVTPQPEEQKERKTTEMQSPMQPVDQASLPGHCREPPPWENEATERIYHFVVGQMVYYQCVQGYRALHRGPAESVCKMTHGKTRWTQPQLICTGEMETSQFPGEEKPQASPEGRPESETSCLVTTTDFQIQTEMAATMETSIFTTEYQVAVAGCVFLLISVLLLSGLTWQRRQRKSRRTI
# T1 sequence 2: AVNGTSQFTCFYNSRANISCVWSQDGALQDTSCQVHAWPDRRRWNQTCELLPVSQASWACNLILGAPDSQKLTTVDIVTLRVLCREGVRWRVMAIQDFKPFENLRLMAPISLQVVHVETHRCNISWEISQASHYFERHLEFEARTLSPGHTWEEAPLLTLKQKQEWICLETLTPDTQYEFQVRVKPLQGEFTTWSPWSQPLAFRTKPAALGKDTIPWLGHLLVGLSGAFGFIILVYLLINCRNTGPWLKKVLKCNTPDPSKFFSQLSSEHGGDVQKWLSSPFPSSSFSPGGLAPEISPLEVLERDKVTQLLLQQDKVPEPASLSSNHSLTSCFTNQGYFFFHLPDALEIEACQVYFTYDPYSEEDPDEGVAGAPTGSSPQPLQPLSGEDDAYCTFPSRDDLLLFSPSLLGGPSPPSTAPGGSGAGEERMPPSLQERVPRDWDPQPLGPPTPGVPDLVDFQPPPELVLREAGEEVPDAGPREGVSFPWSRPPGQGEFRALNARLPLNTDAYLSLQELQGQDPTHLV
# T1 sequence 3: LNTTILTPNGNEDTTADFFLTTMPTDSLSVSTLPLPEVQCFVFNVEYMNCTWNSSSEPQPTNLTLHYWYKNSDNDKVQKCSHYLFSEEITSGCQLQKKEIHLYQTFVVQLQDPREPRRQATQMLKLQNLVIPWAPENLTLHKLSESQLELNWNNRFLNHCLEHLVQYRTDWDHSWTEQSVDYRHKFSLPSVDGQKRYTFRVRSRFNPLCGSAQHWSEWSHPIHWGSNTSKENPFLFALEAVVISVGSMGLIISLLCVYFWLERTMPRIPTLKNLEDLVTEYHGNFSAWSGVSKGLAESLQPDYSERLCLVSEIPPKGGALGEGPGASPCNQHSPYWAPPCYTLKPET
# assay: cell-based or functional assay
attribute_measured: pSTAT5 ratio YT CD25/YT, dilution factor 2, lower table

[[record]]
binder = "RGH (ligand) cytokine: APTSSSTKKTQLQLEHLRLDLGMILNGINNYKNPKLTRMLTFKFYMPKKATELKHLQCLEEELKPLEEVLNLAQSKNFHLRPRDLISNINVIVLELKGSETTFMCEYADETATIVEFLNRWITFCHSIISTLT"
measured_value = 0.6

[[record]]
binder = "RYH (ligand) cytokine: APTSSSTKKTQLQLEHLRLDLYMILNGINNYKNPKLTRMLTFKFYMPKKATELKHLQCLEEELKPLEEVLNLAQSKNFHLRPRDLISNINVIVLELKGSETTFMCEYADETATIVEFLNRWITFCHSIISTLT"
measured_value = 0.9

[[record]]
binder = "RAH (ligand) cytokine: APTSSSTKKTQLQLEHLRLDLAMILNGINNYKNPKLTRMLTFKFYMPKKATELKHLQCLEEELKPLEEVLNLAQSKNFHLRPRDLISNINVIVLELKGSETTFMCEYADETATIVEFLNRWITFCHSIISTLT"
measured_value = 0.6

[[record]]
binder = "RKH (ligand) cytokine: APTSSSTKKTQLQLEHLRLDLKMILNGINNYKNPKLTRMLTFKFYMPKKATELKHLQCLEEELKPLEEVLNLAQSKNFHLRPRDLISNINVIVLELKGSETTFMCEYADETATIVEFLNRWITFCHSIISTLT"
measured_value = 1

[[record]]
binder = "RWH (ligand) cytokine: APTSSSTKKTQLQLEHLRLDLWMILNGINNYKNPKLTRMLTFKFYMPKKATELKHLQCLEEELKPLEEVLNLAQSKNFHLRPRDLISNINVIVLELKGSETTFMCEYADETATIVEFLNRWITFCHSIISTLT"
measured_value = 0.8

[[record]]
binder = "DEH (ligand) cytokine: APTSSSTKKTQLQLEHLDLDLEMILNGINNYKNPKLTRMLTFKFYMPKKATELKHLQCLEEELKPLEEVLNLAQSKNFHLRPRDLISNINVIVLELKGSETTFMCEYADETATIVEFLNRWITFCHSIISTLT"
measured_value = 0.9

[[record]]
binder = "hIL2 mutein REH (L18R, Q22E, Q126H) (ligand) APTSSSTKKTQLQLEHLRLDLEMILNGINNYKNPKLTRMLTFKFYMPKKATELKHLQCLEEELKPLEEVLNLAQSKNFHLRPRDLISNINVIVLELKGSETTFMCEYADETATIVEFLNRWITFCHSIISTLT"
measured_value = 0.8


The reported measurements were obtained from patent US20210275641A1.
